Sourced from PubChem BioAssay (NCI)

Field: TGI. Provide a value for each of the compounds that follow.
- System: MDA-MB-231 breast
- assay summary: NCI tumour cell line growth inhibition, 48 h

## Input Give the measured TGI for CSc1nc(C)c(CCOC(C)=O)c(Cl)n1
## Output > 100 µM

## Input Give the measured TGI for COc1cc2c(cc1OC)C(=O)C1(C2)[C@H](c2ccccc2)C2C(=O)c3cc(OC)c(OC)cc3C2[C@H]1c1ccccc1 (stereo partly drawn)
## Output > 100 µM

## Input Give the measured TGI for CC1(c2ccc(Cl)s2)CC(c2ccc(Cl)s2)=C(C#N)C(=C(C#N)C#N)N1 (stereo not drawn)
## Output 47.1 µM

## Input Give the measured TGI for CC(=O)OC[C@@]12Cc3ccc(C)c(O)c3[C@]1(C)[C@@H](OC(C)=O)[C@]1(O)[C@H]([C@@H](OC(=O)c3ccccc3)[C@@H](C)[C@H]1OC(C)=O)[C@H]2OC(C)=O
## Output > 50 µM

## Input Give the measured TGI for C/C(=C\c1cc(C(F)(F)F)n(-c2ccc(N)cc2)n1)[C@@H]1C[C@@H]2O[C@]2(C)CCC[C@H](C)[C@H](O)[C@@H](C)C(=O)C(C)(C)[C@@H](O)CC(=O)O1
## Output > 11.1 µM

## Input Give the measured TGI for O=C1/C(=C/c2ccc(Cl)cc2)CCC/C1=C\c1ccc(Cl)cc1
## Output > 100 µM

## Input Give the measured TGI for CC1=C(C(=O)Nc2cc(Cl)c3[nH]ncc3c2)C(c2ccc(C(F)(F)F)cc2)CC(=O)N1 (stereo not drawn)
## Output > 25 µM

## Input Give the measured TGI for O=C(c1ccccc1)C1C(c2ccccc2)N1S(=O)(=O)c1ccccc1 (stereo not drawn)
## Output > 100 µM

----------
- Test system: OVCAR-3 ovarian
- assay summary: NCI tumour cell line growth inhibition, 48 h
result type: TGI

## Input Give the measured TGI for Oc1cc(N2CCCC2)ccc1/C=N/N1C(=S)N(c2ccccc2)C(=Nc2ccccc2)C1=Nc1ccccc1
## Output > 100 µM

## Input Give the measured TGI for O=C1OC(=O)C2CCCC3CCCC1C32 (stereo unspecified)
## Output > 100 µM

## Input Give the measured TGI for CCc1cc(CCC(=O)Nc2ccccc2[N+](=O)[O-])[nH]c(=S)n1
## Output > 100 µM

## Input Give the measured TGI for Oc1c(Cl)cc(Cl)cc1C(c1cc(Cl)cc(Cl)c1O)C(Cl)(Cl)Cl
## Output 10.8 µM

## Input Give the measured TGI for O=S(=O)(SC1=NCCN1)c1cccc2ccccc12
## Output > 100 µM

## Input Give the measured TGI for COc1cccc(Nc2nc(N)nc(N)c2N)c1
## Output > 100 µM

----------
Field: TGI. Provide a value for each of the compounds that follow.
- System: HCT-116 colon
- assay summary: NCI tumour cell line growth inhibition, 48 h
Express the result in µM but write the number alone.

## Input Give the measured TGI for COc1cc(-c2csc(NC(=O)Nc3ccc(C(F)(F)F)cc3)n2)cc(OC)c1OC
## Output 8.16

## Input Give the measured TGI for O=C1/C(=C/c2ccc(Cl)cc2)CCC/C1=C\c1ccc(Cl)cc1
## Output 3.02

## Input Give the measured TGI for O=C1NC(N2CCCCC2)=N/C1=C\c1ccc(Cl)cc1
## Output 92.7

## Input Give the measured TGI for COC(=O)C12OCC34C(CC5C(C)C6=CC(=O)OC6=CC5(C)C3C(O)C1O)OC(=O)C(O)C24 (stereo not drawn)
## Output 6.31

## Input Give the measured TGI for CC(C)(C)OC(=O)NCCCC(=O)NC1(c2cc3ccccc3s2)CCCCC1
## Output 30.1

## Input Give the measured TGI for CCCCCCCCCC(=O)OCC1OC(n2cc(F)c(=O)[nH]c2=O)C(NC(=O)OCc2ccccc2)C(OC(=O)CCCCCCCCC)C1O (stereo not drawn)
## Output 28.1

## Input Give the measured TGI for CC(=O)O[C@@]12CO[C@@H]1C[C@@H](O)[C@@]1(C)C(=O)[C@H](O)C3=C(C)[C@@H](OC(=O)[C@H](O)[C@@H](NC(=O)c4ccccc4)c4ccccc4)C[C@@](O)([C@@H](OC(=O)c4ccccc4)C12)C3(C)C (stereo partly drawn)
## Output 0.152

## Input Give the measured TGI for COC(=O)C1=C(C)NC(C)=C(C(=O)OC)C1c1ccc(N=O)cc1
## Output 36.8
